ASSAY_TARGET: Melanocyte-stimulating hormone receptor (Mus musculus)
Sequence (Q01727 whole entry): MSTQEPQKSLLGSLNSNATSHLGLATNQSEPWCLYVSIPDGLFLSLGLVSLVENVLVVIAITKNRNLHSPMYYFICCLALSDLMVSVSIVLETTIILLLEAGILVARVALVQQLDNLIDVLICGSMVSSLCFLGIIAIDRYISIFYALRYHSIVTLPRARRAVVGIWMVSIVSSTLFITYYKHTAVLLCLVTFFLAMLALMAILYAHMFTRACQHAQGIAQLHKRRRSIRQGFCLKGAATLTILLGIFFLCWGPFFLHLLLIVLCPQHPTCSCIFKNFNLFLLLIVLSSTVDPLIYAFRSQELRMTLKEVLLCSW
RUN_DESCRIPTION: Agonist activity on mouse melanocortin 1 receptor (mMC1R) stably expressed in HEK cells
ENDPOINT_LABEL: EC50 (µM)

- Cc1cccc(CNC(=O)[C@H](Cc2c[nH]c3ccccc23)NC(=O)NCc2ccccc2)c1: 28
- NCCCCNC(=O)[C@H](Cc1c[nH]c2ccccc12)NC(=O)NN1CCC(Cc2ccccc2)CC1: 20
- NCCCCNC(=O)[C@H](Cc1c[nH]c2ccccc12)NC(=O)NC1CCN(Cc2ccccc2)CC1: 5

P. NCCCCCCNC(=O)[C@H](Cc1c[nH]c2ccccc12)NC(=O)NCc1ccccc1
Q. NCCCCNC(=O)[C@H](Cc1c[nH]c2ccccc12)NC(=O)NN1CCc2ccccc2C1
# input Pick the one with the larger EC50: P vs Q Please respond with the label that marks your chosen entry.
# output P
